# Test system: EVSA-T (Breast Carcinoma)
# protocol notes: combination Emax (second highest fraction inhibited in the dose matrix, 72 h); higher = more inhibition; extreme values may be limits of the assay
Outcome label depends on combination Emax relative to 0.9: at/above gives t, below gives f.

| compound | discrete label |
| --- | --- |
| NC1(C(=O)N[C@@H](CCO)c2ccc(Cl)cc2)CCN(c2ncnc3[nH]ccc23)CC1 [Capivasertib] + Cn1cnc2c(F)c(Nc3ccc(Br)cc3Cl)c(C(=O)NOCCO)cc21 [Selumetinib] (first compound max 10 µM, 7x7, partner max 10 µM) | t |
| C[C@@H](c1ccc2nccn2c1)n1nnc2ncc(-c3cnn(C)c3)nc21 [Savolitinib] + CC1(C)CCC(CN2CCN(c3ccc(C(=O)NS(=O)(=O)c4ccc(NCC5CCOCC5)c([N+](=O)[O-])c4)c(Oc4cnc5[nH]ccc5c4)c3)CC2)=C(c2ccc(Cl)cc2)C1 [Venetoclax] (first compound max 1 µM, 7x7, partner max 1 µM) | f |
| Cc1c2c(nn1C)CSCc1cc(n(C)n1)CSc1cc(c3ccccc3c1)OCCCc1c(C(=O)O)n(C)c3c-2c(Cl)ccc13 [AZD5991] + Cc1cc2ncnn2cc1Nc1ncc2c(n1)n(C1CCOCC1)c(=O)n2C [AZD7648] (first compound max 1 µM, 7x7, partner max 10 µM) | t |
| Cc1c2c(nn1C)CSCc1cc(n(C)n1)CSc1cc(c3ccccc3c1)OCCCc1c(C(=O)O)n(C)c3c-2c(Cl)ccc13 [AZD5991] + CCN(CCO)CCCOc1ccc2c(Nc3cc(CC(=O)Nc4cccc(F)c4)[nH]n3)ncnc2c1 [AZD2811] (first compound max 1 µM, 7x7, partner max 1 µM) | t |
| CC(=O)c1c(C)c2cnc(Nc3ccc(N4CCNCC4)cn3)nc2n(C2CCCC2)c1=O [Palbociclib] + Cn1cnc2c(F)c(Nc3ccc(Br)cc3Cl)c(C(=O)NOCCO)cc21 [Selumetinib] (first compound max 10 µM, 7x7, partner max 10 µM) | f |

Exam item: Reported combination Emax at or above 0.9? NC1(C(=O)N[C@@H](CCO)c2ccc(Cl)cc2)CCN(c2ncnc3[nH]ccc23)CC1 [Capivasertib] + CCN(CCO)CCCOc1ccc2c(Nc3cc(CC(=O)Nc4cccc(F)c4)[nH]n3)ncnc2c1 [AZD2811] (first compound max 10 µM, 7x7, partner max 1 µM)
Marked response: t

Reference for the values: the supplement of paper PMC11061612
